Biological target: Corticotropin-releasing factor receptor 1 (Homo sapiens)
Sequence (P34998 whole entry): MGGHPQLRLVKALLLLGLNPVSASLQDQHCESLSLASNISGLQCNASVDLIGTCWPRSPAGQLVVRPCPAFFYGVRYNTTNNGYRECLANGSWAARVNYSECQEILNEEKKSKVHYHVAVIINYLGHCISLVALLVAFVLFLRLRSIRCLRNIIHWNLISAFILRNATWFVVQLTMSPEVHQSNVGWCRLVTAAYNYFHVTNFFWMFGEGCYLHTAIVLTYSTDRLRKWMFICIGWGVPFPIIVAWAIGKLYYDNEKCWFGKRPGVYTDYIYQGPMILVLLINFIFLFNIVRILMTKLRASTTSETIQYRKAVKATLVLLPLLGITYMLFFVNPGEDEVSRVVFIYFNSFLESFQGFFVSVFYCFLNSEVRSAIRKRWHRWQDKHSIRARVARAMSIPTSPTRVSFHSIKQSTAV
Experiment: Antagonist activity at CRF1 receptor in human Y-79 cells assessed as inhibition of CRF-induced cAMP production after 30 mins by HTRF analysis
recordedEndpoint: IC50 (nM)
Expressed in nM, but write only the number.

Query: Read the entry C[C@@H](C1CC1)n1cc(Cl)nc(Nc2c(Cl)cc(OC(F)F)cc2Cl)c1=O and write its reported IC50.
Result: 4.9

###

Assay: Clearance in Sprague-Dawley rat 2 mg/kg, iv within 0.17 to 24 hrs
Type: ADME, organism-based
Design: dose 2 mg/kg, route intravenous
Conditions: in vivo
A collection of molecules and their measured clearance
Write it as a number; the unit mL/min/kg goes unstated.

| molSmiles | clearance (mL/min/kg) |
| --- | --- |
| Cc1cn([C@H](C)C2CC2)c(=O)c(Nc2c(C)cc(Cl)cc2C)n1 | 30 |
| C[C@H](C1CC1)n1cc(C#N)nc(Nc2c(Cl)cc(OC(F)F)cc2Cl)c1=O | 21 |
| C[C@@H](C1CC1)n1cc(Cl)nc(Nc2c(Cl)cc(OC(F)F)cc2Cl)c1=O | 17 |

Consider the record given below.
Query: Give clearance for C[C@H](C1CC1)n1cc(Cl)nc(Nc2c(Cl)cc(C(F)(F)F)cc2Cl)c1=O
Result: 21
